Biological target: Recombinant STAT3 protein (STAT3 (G127-I722)) (Homo sapiens, UniProt P40763)
Construct: Recombinant STAT3 protein (STAT3 (G127-I722))
Sequence (P40763 127-722): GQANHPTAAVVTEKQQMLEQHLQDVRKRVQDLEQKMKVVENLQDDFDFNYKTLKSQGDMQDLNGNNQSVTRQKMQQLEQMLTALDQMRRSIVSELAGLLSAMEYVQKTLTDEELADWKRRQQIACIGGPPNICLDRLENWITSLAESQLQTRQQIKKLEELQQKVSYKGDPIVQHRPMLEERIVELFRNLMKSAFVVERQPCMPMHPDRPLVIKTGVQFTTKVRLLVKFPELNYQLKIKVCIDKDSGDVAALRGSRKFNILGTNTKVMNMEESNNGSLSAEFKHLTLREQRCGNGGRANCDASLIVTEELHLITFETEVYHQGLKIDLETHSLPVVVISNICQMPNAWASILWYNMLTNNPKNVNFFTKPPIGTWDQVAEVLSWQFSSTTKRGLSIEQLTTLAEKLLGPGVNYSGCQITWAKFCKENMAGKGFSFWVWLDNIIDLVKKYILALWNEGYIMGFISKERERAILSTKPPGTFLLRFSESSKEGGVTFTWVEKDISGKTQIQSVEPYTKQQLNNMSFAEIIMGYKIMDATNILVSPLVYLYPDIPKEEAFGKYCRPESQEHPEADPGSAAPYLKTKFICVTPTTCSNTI
Assay: STAT3 Fluorescence Polarization (FP) Assay
Type: binding
Details: STAT3 (G127-I722) 25 nM, probe 5-FAM-GpYLPQTV-NH2 2 nM, 45-minute incubation; read-out: STAT3 (FP assay IC50 class)
experimental endpoint: IC50

q: Would you please give the reported IC50 of O=C(N[C@H]1CCC[C@H]2CC[C@@H](C(=O)N3CC(c4cnccc4OC4COC4)C3)N2C1=O)c1cc2cc(C(F)P(=O)(O)O)ccc2s1 (stereo partly drawn) with Recombinant STAT3 protein (STAT3 (G127-I722)) (Homo sapiens, UniProt P40763)?
a: < 100 nM

q: Provide measured IC50 on Recombinant STAT3 protein (STAT3 (G127-I722)) (Homo sapiens, UniProt P40763) for "COc1ccnc(C(F)F)c1C1CN(C(=O)[C@@H]2CC[C@@H]3CCC[C@H](NC(=O)c4cc5cc(CP(=O)(O)O)ccc5s4)C(=O)N32)C1" please.
a: 1000 to 10000 nM

q: Provide IC50, system Recombinant STAT3 protein (STAT3 (G127-I722)) (Homo sapiens, UniProt P40763), entry "COC1(c2nccn2C)CN(C(=O)[C@@H]2CC[C@@H]3CCC4(CC4)C[C@H](NC(=O)c4ccc5ccc(C(F)(F)P(=O)(O)O)cc5c4)C(=O)N32)C1"
a: 1000 to 10000 nM

q: Return reported IC50 for target or system Recombinant STAT3 protein (STAT3 (G127-I722)) (Homo sapiens, UniProt P40763), item "O=C(N[C@H]1CCCC[C@H]2CC[C@@H](C(=O)N3CC(c4ccc(=O)[nH]c4)C3)N2C1=O)c1cc2cc(C(F)(F)P(=O)(O)O)ccc2s1" .
a: 100 to 1000 nM

q: Give reported IC50 for "O=C(N[C@H]1CCC[C@H]2CC[C@@H](C(=O)N3CC(c4cnccc4N4CC(C(F)F)C4)C3)N2C1=O)c1cc2cc(CP(=O)(O)O)ccc2s1" (Recombinant STAT3 protein (STAT3 (G127-I722)) (Homo sapiens, UniProt P40763))
a: < 100 nM

q: Name the value of IC50 reported for CC(c1cc[nH]c(=O)c1)N(C)C(=O)[C@@H]1CC[C@@H]2CCCC[C@H](NC(=O)c3cc4cc(C(F)(F)P(=O)(O)O)ccc4s3)C(=O)N21 (stereo partly drawn) when tested on Recombinant STAT3 protein (STAT3 (G127-I722)) (Homo sapiens, UniProt P40763).
a: 100 to 1000 nM

q: Provide Recombinant STAT3 protein (STAT3 (G127-I722)) (Homo sapiens, UniProt P40763) IC50 reading for CNc1c(F)cncc1C1CN(C(=O)[C@@H]2CC[C@@H]3CCC[C@H](NC(=O)c4cc5cc([C@H](F)P(=O)(O)O)ccc5s4)C(=O)N32)C1 (single isomer, unassigned) .
a: < 100 nM

q: // output IC50; input "Cc1ccnc(F)c1C1CN(C(=O)[C@@H]2CC[C@@H]3CCC[C@H](NC(=O)c4cc5cc(CP(=O)(O)O)ccc5s4)C(=O)N32)C1" ; system Recombinant STAT3 protein (STAT3 (G127-I722)) (Homo sapiens, UniProt P40763)
a: 1000 to 10000 nM

q: Report value: IC50, system: Recombinant STAT3 protein (STAT3 (G127-I722)) (Homo sapiens, UniProt P40763), molecule: NC(=O)Cc1cc(-c2ccccc2)ccc1NC(=O)[C@@H]1CCC2CCC[C@H](NC(=O)c3cc4cc(C(F)(F)P(=O)(O)O)ccc4s3)C(=O)N21 (stereo partly drawn)
a: 100 to 1000 nM

q: Determine reported IC50 for "N#Cc1cnc(C2CN(C(=O)[C@@H]3CC[C@@H]4CCCC[C@H](NC(=O)c5cc6cc(C(F)(F)P(=O)(O)O)ccc6s5)C(=O)N43)C2)nc1" ; test system: Recombinant STAT3 protein (STAT3 (G127-I722)) (Homo sapiens, UniProt P40763).
a: < 100 nM

q: Please report IC50 with Recombinant STAT3 protein (STAT3 (G127-I722)) (Homo sapiens, UniProt P40763) for item O=C(N[C@H]1CCC[C@H]2CC[C@@H](C(=O)N3CC(c4cnccc4OC4CCCC4)C3)N2C1=O)c1cc2cc(C(F)P(=O)(O)O)ccc2s1 (stereo partly drawn) .
a: < 100 nM

q: Name the value of IC50 reported for O=C(N[C@H]1CCC[C@H]2CC[C@@H](C(=O)N3CC(c4cc5cccnc5cc4F)C3)N2C1=O)c1cc2cc(C(F)P(=O)(O)O)ccc2s1 (stereo partly drawn) when tested on Recombinant STAT3 protein (STAT3 (G127-I722)) (Homo sapiens, UniProt P40763).
a: 1000 to 10000 nM

q: Give measured IC50 for COc1ccn(C2CN(C(=O)[C@@H]3CC[C@@H]4CCC[C@H](NC(=O)c5cc6cc(C(F)P(=O)(O)O)ccc6s5)C(=O)N43)C2)n1 (stereo partly drawn) (Recombinant STAT3 protein (STAT3 (G127-I722)) (Homo sapiens, UniProt P40763)).
a: 100 to 1000 nM

q: Write down the reported IC50 (system: Recombinant STAT3 protein (STAT3 (G127-I722)) (Homo sapiens, UniProt P40763)) of O=C(N[C@H]1CCC[C@H]2CC[C@@H](C(=O)N3CC(c4cnccc4N4CCOCC4)C3)N2C1=O)c1cc2cc(C(F)P(=O)(O)O)ccc2s1 (stereo partly drawn)
a: < 100 nM

q: Param request: IC50 | system Recombinant STAT3 protein (STAT3 (G127-I722)) (Homo sapiens, UniProt P40763) | item "O=C(N[C@H]1CCCCC[C@H]2CC[C@@H](C(=O)N3CC(C(=O)N4CCOCC4)C3)N2C1=O)c1cc2cc(C(F)(F)P(=O)(O)O)ccc2s1"
a: 100 to 1000 nM

q: Enter measured IC50, system Recombinant STAT3 protein (STAT3 (G127-I722)) (Homo sapiens, UniProt P40763), for the molecule shown: "Cc1cncnc1C1CN(C(=O)[C@@H]2CC[C@@H]3CCC[C@H](NC(=O)c4cc5cc(CP(=O)(O)O)ccc5s4)C(=O)N32)C1"
a: 1000 to 10000 nM

q: Provide IC50, recorded with Recombinant STAT3 protein (STAT3 (G127-I722)) (Homo sapiens, UniProt P40763), of "O=C(N[C@H]1CCC[C@H]2CC[C@@H](C(=O)N3CC(C4=CCOCC4)C3)N2C1=O)c1cc2cc(CP(=O)(O)O)ccc2s1"
a: 1000 to 10000 nM

q: Name the recorded IC50 of C[C@H]1C[C@H]2CC[C@@H](C(=O)N3CC(c4cncnc4N4CCC4)C3)N2C(=O)[C@@H](NC(=O)c2cc3cc([C@@H](F)P(=O)(O)O)ccc3s2)C1 (single isomer, unassigned) , assay system Recombinant STAT3 protein (STAT3 (G127-I722)) (Homo sapiens, UniProt P40763).
a: < 100 nM
